molecular target: cS1P5 receptor (Canis lupus familiaris, UniProt A0A8I3Q0H0); assay: S1P ligand binding assay with transfected CHO cells expressing the cS1P5 receptor; set-up: species or system Canis (dog); conditions: 33P-S1P, 60 minutes at room temperature, FIG. 3
Quantity Name: EC50

Query: What value of EC50 has been recorded for this entry: CCCCCCCCCCCCC/C=C/[C@@H](O)[C@@H](N)COP(=O)(O)O [S1P, sphingosine-1-phosphate]
Reply: ~0.21 nM
